# assay explanation: NCI Yeast Anticancer Drug Screen. Data for the cln2 rad14 strain (AID 165);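 note: 0% = growth equal to vehicle treated cultures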
# condition notes: S. cerevisiae cln2 rad14 strain, at 50.0 µM, stronger effect = higher value
About 79,000 compounds went through this panel and 15% of them were active in at least one assay; those are over-represented in the sample as a whole.
readout type: growth inhibition (%)
Express it in %; write the number only.

> print(dat)
                                   compound       readout.type  test.result
1            Cc1cc(C)c(C(=O)CSC(=N)N)c(C)c1  growth inhibition         -6.6
2  CCCCC(C=O)(CC)CCC#N (configuration not stated)  growth inhibition        -17.9
3  Cc1ccc(SCC(CF)OC(C)n2cnc3c(=O)[nH]c(N)nc32)cc1 (configuration not stated)  growth inhibition         23.4

Entry COc1c(NC(=O)Nc2ccc(F)c([N+](=O)[O-])c2)cccc1[N+](=O)[O-] : reported growth inhibition = ?
2.8

Same question for COc1ccc(OC)c(NC(=O)Sc2c(Cl)c(Cl)nc(Cl)c2Cl)c1 please.
-8.9

Same question for CC1(CO)COC(=O)C(C)(C2(C)NC(C)(CO)COC2=O)N1 (configuration not stated) please.
13.1

Same question for CC(CO)(CO)N1C(=O)C2C3c4ccccc4C(c4ccccc43)C2C1=O (configuration not stated) please.
-3.15

---

# assay explanation: NCI Yeast Anticancer Drug Screen. Data for the bub3 strain (AID 167)
# condition notes: S. cerevisiae bub3 mutant strain, at 50.0 µM, stronger effect = higher value
The panel holds about 79,000 compounds, 15% with a hit somewhere; the sample as a whole holds those more often.
readout type: growth inhibition (%)
Express it in %; write the number only.

> print(dat)
                                   compound  test.result
1     O=C(O)CNc1cc(-c2ccccc2)nc(NCC(=O)O)n1        -29.1
2      N#CN=C(N)NC(=O)/C=C/C=C/c1ccc(Cl)cc1           38
3  CCOC(=O)C(C)CC(=O)C(C)CC(=O)C(C)C (stereo not drawn)        -9.75

Entry N#CCCCCCCCCCC#N : reported growth inhibition = ?
-52.5

Same question for Cc1ccc(S(=O)c2ccccc2[N+](=O)[O-])cc1 (stereo not drawn) please.
-0.6

Same question for [O-][n+]1c2ccc(Cl)cc2nc2ccc(Cl)cc21 please.
1.45

Same question for OC1C2CCC(C2)C1CN1CCOCC1 (stereo not drawn) please.
4.95

Same question for Cc1cc(=O)n(-c2c(C)cccc2Cl)c(/C=C(\O)c2ccncc2)n1 please.
4.15

Same question for COc1ccc(C2=C(OC(=O)N(C)C)c3cccn3-c3cc(Cl)ccc3S2)cc1 please.
-0.1

---

# assay explanation: NCI Yeast Anticancer Drug Screen. Data for the bub3 strain (AID 167)
# condition notes: S. cerevisiae bub3 mutant strain, at 50.0 µM, stronger effect = higher value
This is part of a sample that, as a whole, favours compounds with a hit. Of some 79,000 tested, about 15% had one in any assay.
readout type: growth inhibition (%)
Express it in %; write the number only.

Some compounds with known growth inhibition results, for comparison:
> print(dat)
                                   compound       readout.type  test.result
1  O=C(CCc1cc(-c2ccccc2)nc(=S)[nH]1)Nc1ccccc1[N+](=O)[O-]  growth inhibition         15.5
2  O=C(NNC(=O)c1ccc2ccccc2c1)c1ccc(Cl)c(Cl)c1  growth inhibition        -5.25
3  COc1ccc(-n2nnnc2C2(Nc3ccccc3)CCN(Cc3ccccc3)CC2)cc1  growth inhibition        -2.15
4  CCOC(=O)C(CN)c1ccccc1 (stereo not given)  growth inhibition        -1.25
5  CN(C)CCCOc1nc2c(c(=O)n(C)c(=O)n2C)n1C (tested in a mixture with another compound)  growth inhibition        -18.9

Entry N/N=C(/C(=O)Nc1cccc(Cl)c1)C(C(=O)c1ccc(O)cc1O)C1OC(=O)c2ccccc21 (stereo not given) : reported growth inhibition = ?
6.1

Same question for Cc1ccc(S(=O)(=O)n2nc(C3OC(CO)C(O)C3O)c(O)c2C(N)=O)cc1 (stereo not given) please.
-3

---

Below, each of the compounds is paired with its reported growth inhibition value.
# assay explanation: NCI Yeast Anticancer Drug Screen. Data for the mec2-1 strain (AID 157)
# condition notes: S. cerevisiae mec2-1 strain, at 50.0 µM, stronger effect = higher value
Compounds without any hit were thinned out: in the full panel of roughly 79,000, 15% have a hit.
Express it in %; write the number only.

> print(dat)
                                   compound  test.result
1  CC(=O)OCC1OC(N2C(c3ccccc3)=CC(c3ccco3)C(C#N)=C2S)C(OC(C)=O)C(OC(C)=O)C1OC(C)=O (stereo not drawn)        -11.2
2  Cc1nc(Nc2ccccc2)sc1C(=O)CC(=O)C(=O)NC12CC3CC(CC(C3)C1)C2         8.95

Continue with the compound presented below.
Entry C[C@]12CCC(=O)C(O)=C1CCC2=O : reported growth inhibition = ?
-7.35

---

# assay explanation: NCI Yeast Anticancer Drug Screen. Data for the rad50 strain (AID 155);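 note: 0% = growth of vehicle-only cultures of the same strain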
# condition notes: S. cerevisiae rad50 strain growth inhibition; at 50.0 µM
This is part of a sample that, as a whole, favours compounds with a hit. Of some 79,000 tested, about 15% had one in any assay. Activity calls are given as the source filed them. Rule as the data show it: active = growth inhibition above about 70%; inactive = the rest.
Parameter call: string, one of label 1 (active), label 0 (inactive)

Some solved cases for reference:
> print(dat)
                                   molecule      cat
1  CC1C(=O)OC2C1CCC1(C)C=CC(=O)C(C)C21 (stereo not given)  label 0
2                         O=C1CNS(=O)(=O)N1  label 0
3           Oc1ccc(O)c(CCCCCc2cc(O)ccc2O)c1  label 1
4                      Cc1cc2nnnn2c2ccccc12  label 0
5  CCCCCCCCCCCCCCCCCCOc1c(Cl)c(Cl)c(Cl)c(Cl)c1Cl  label 0

Fill in: this test's call for O=c1[nH]c2ccc(Cl)cc2[nH]c1=O is ___
label 0

Same question for C(=C/c1ccccc1)/CNCCNC/C=C/c1ccccc1 please.
label 0

Same question for NC1c2c(Cl)sc(Cl)c2C(=O)C1O (stereo not given) please.
label 0

Same question for CC(=O)Nc1ccc(S(=O)(=O)Nc2cccc3ccccc23)cc1 please.
label 0

Same question for CC1(C)CC(OP(=O)(c2ccccc2)c2ccccc2)CC(C)(C)N1O please.
label 0

---

# assay explanation: NCI Yeast Anticancer Drug Screen. Data for the rad50 strain (AID 155);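 note: 0% = growth of vehicle-only cultures of the same strain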
# condition notes: S. cerevisiae rad50 strain growth inhibition; at 50.0 µM; stronger effect = higher value
The panel holds about 79,000 compounds, 15% with a hit somewhere; the sample as a whole holds those more often.
readout type: growth inhibition (%)
Express it in %; write the number only.

> print(dat)
                                   compound       readout.type  test.result
1               CC1=Nc2cc(C)c(C)cc2NC(=O)C1  growth inhibition        -16.8
2             Cc1nc(N)c2nc(SC(C)C)c(N)nc2n1  growth inhibition         2.85
3  CCOC(=O)C1CC1OCc1ccccc1 (centres undefined)  growth inhibition         -0.2
4  CCOC(=O)/C(=C/n1c(=S)[nH]c2ccc([N+](=O)[O-])cc21)C(=O)c1ccccc1  growth inhibition        -7.55
5  CSCCC(Nc1ncnc2nc[nH]c12)C(=O)O (centres undefined)  growth inhibition         -9.7

Entry CC(=O)Nc1ccc(S(=O)(=O)NC(=O)NCCC(C)C)cc1 : reported growth inhibition = ?
1.95

Same question for N=c1c2ccccc2nc2oc3ccccc3n12 please.
48.8

Same question for CC(C)C1OC2(CCCCC2)OCC1(C)C (centres undefined) please.
23.2

Same question for CC(C)(C)C1CCC(O)(CSc2ccccc2)CC1 (centres undefined) please.
6.7

---

# assay explanation: NCI Yeast Anticancer Drug Screen. Data for the rad50 strain (AID 155);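 note: 0% = growth of vehicle-only cultures of the same strain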
# condition notes: S. cerevisiae rad50 strain growth inhibition; at 50.0 µM; stronger effect = higher value
# Procedure: Growth inhibition of yeast strains with defined genetic alterations is measured as a screen for potential anti-cancer activity. Selected strains with alterations in DNA damage repair or cell cycle control were exposed to compounds and growth inhibition was measured relative to vehicle treated controls. The strain used in this assay is rad50
About 79,000 compounds went through this panel and 15% of them were active in at least one assay; those are over-represented in the sample as a whole. Calls of active or inactive are those of the source. Cut-off read from the data, not from the text of the source: active = growth inhibition above about 70%; inactive = the rest.
readout type: growth inhibition

> print(dat)
                                    compound       readout.type        test.result
 1               O=c1[nH]cnc2c1cnn2-c1ccccc1  growth inhibition   17.1% (inactive)
 2                       O=C(O)CNC(CO)(CO)CO  growth inhibition    -55% (inactive)
 3                   O=c1nnc(O)c2n(O)cccc1-2  growth inhibition  -24.2% (inactive)
 4  Oc1c(CNCc2ccccc2)cc(CNCc2ccccc2)c(O)c1CNCc1ccccc1  growth inhibition    5.3% (inactive)
 5                CCOC(=O)CSc1ncnc2nc[nH]c12  growth inhibition   31.2% (inactive)
 6  CCOC(=O)C1=C(C(=O)c2ccccc2)C(c2ccc(Cl)cc2Cl)C(C(=O)c2ccccc2)=C(C(=O)OCC)N1  growth inhibition  -11.3% (inactive)
 7  O=C1C2=C(c3ccccc31)C(c1ccc(F)cc1)N1C(=O)CCSC1=N2 (configuration not stated)  growth inhibition   45.1% (inactive)
 8  CC(O)C1C(C(=O)O)C2C(C)OC(=O)C12 (configuration not stated)  growth inhibition   -0.6% (inactive)
 9      COc1ccc(C(=O)OCc2ccccc2CN2CCOCC2)cc1  growth inhibition   0.75% (inactive)
10  Cc1ccc(NC(=O)C(=O)C(C(=O)c2ccc3ccccc3c2)C2OC(=O)c3ccccc32)c(C)c1 (configuration not stated)  growth inhibition   45.6% (inactive)

Entry O=C(CN1C(=O)NC(c2ccccc2)(c2ccccc2)C1=O)NCCN1CCOCC1 : reported growth inhibition = ?
-1.65% (inactive)

Same question for Nc1nc(-c2ccccc2)c(N=Nc2cc(Cl)ccc2Cl)s1 please.
4.5% (inactive)

Same question for Cc1cccc(NC(=O)Nc2ccccc2Cl)c1C please.
11.2% (inactive)

Same question for CCC12CC(=O)CCC1CCc1ccc(OC)c(OC)c12 (configuration not stated) please.
-14.6% (inactive)

Same question for CC(C)CCCC(C)C1CCC2C3CC=C4CC(C(=O)O)CCC4C3CCC12C (configuration not stated) please.
26.8% (inactive)

Same question for O=C(O)COc1cccc2ccccc12 please.
5.25% (inactive)

Same question for CC(=O)OCC(NC(=O)C(N)CC(=O)O)C(=O)NCC(=O)Oc1ccc([N+](=O)[O-])cc1 (configuration not stated) please.
13.9% (inactive)

Same question for Cc1cc(C)[n+]([O-])c(C)c1 please.
-14.6% (inactive)

Same question for NCCNCCCNCCN please.
7.85% (inactive)

Same question for Cc1c(Cl)ccc2c1NC(=O)C2(O)C1Cc2ccccc2C1=O (configuration not stated) please.
44.5% (inactive)

Same question for NCCNCCCNC(=O)c1cc(-c2ccccc2)nc2ccccc12 please.
-18.8% (inactive)

Same question for OCCOCn1nc(-c2ccccc2)nc1-c1cnccn1 please.
-13.4% (inactive)

Same question for COc1ccc(C2c3cc4c(cc3OC(C)(OC)C2C)OCO4)c(OC)c1 (configuration not stated) please.
5.25% (inactive)

Same question for COc1ccc(C=Nc2ccc(O)cc2)cc1 please.
5.45% (inactive)

Same question for C/C=C(\CC)C(C)(C#N)C(=O)OCC (configuration not stated) please.
-13.3% (inactive)

Same question for COC1CCC(C(C)(C)C)CC1 (configuration not stated) please.
2.45% (inactive)

Same question for CC(C)(CO)NCC(O)CS(=O)(=O)O (configuration not stated) please.
-30.8% (inactive)

Same question for CNc1ccccc1C(=O)N/N=C/c1ccc(O)c(OC)c1 please.
3% (inactive)

Same question for Fc1ccccc1-c1nnc(-c2ccccc2F)o1 please.
1.65% (inactive)

Same question for CCC(CO)Nc1nc2c(c(=O)n(C)c(=O)n2C)n1CCO (configuration not stated) please.
-21.9% (inactive)

Same question for CC(C)NCC1CCCO1 (configuration not stated) please.
-6.65% (inactive)

Data credit: PubChem BioAssay (NCI)
